Where do the numbers come from? From PubChem BioAssay (EPA / NIEHS).

# measured-on: Cellular tumor antigen p53 (Homo sapiens)
# experiment-summary: TOX21_p53_BLA_p4_ratio: Tox21 HCT-116 p53 Agonism Beta-lactamase Assay, Ratio, Phase 4 (AID 2283601)
Inconclusive results are not listed. Activity calls are given as the source filed them. The calls were made as follows: active = hit-call score of the fitted dose curve at least 0.9, where 1 is the maximum; inconclusive = response in the unintended direction; inactive = score below 0.9.
Respond using exactly one of the listed classes: active, inactive

How was "C=C(C)C(=O)OCC(C)(C)COC(=O)C(=C)C" classified in this test? inactive

Write down the call the test reported for this molecule. Item: "C#C[C@]1(O)CC[C@H]2[C@@H]3CCC4=C/C(=N/O)CC[C@@H]4[C@H]3CC[C@@]21CC" inactive

Would you mind telling me which call this test gave "O=C(CCCCCCCCCCCCC1CCCC1)Nc1ccc(S(=O)(=O)c2ccc(NC(=O)CCCCCCCCCCCCC3CCCC3)cc2)cc1" ? inactive

Per the assay record, what outcome was assigned to "C[C@]12C=CC(=O)C=C1CC[C@@H]1[C@@H]2[C@@H](O)C[C@@]2(C)[C@H]1CC[C@]2(O)C(=O)COC(=O)CCC(=O)O" ? inactive

So what was the verdict on "Nc1ncnc2c1ncn2[C@@H]1O[C@H](COP(=O)(O)OP(=O)(O)OP(=O)(O)O)[C@@H](O)[C@H]1O" in this test? inactive

Each molecule tested received a call. Report the one for Nc1ccn(C2CO[C@H](CO)O2)c(=O)n1 (stereo partly drawn) . active

What did this assay record as the result for "CCc1cc(Cl)c(OC)c(C(=O)NC[C@@H]2CCCN2CC)c1O" ? inactive

Look up the recorded call for "C[C@@H]1O[C@@H](OC[C@H]2O[C@@H](Oc3c(-c4ccc(OCCO)c(OCCO)c4)oc4cc(OCCO)cc(O)c4c3=O)[C@H](O)[C@@H](O)[C@@H]2O)[C@H](O)[C@H](O)[C@H]1O" in this test. inactive

###

# Read-out: Vascular cell adhesion molecule 1 (VCAM1), VCAM1 (gene 7412)
# experiment-summary: BSK_MyoF_VCAM1: BioMAP Diversity Plus: MyoF Assay for Vascular cell adhesion molecule 1 (VCAM1) Biomarker Activity (AID 2284231)
# condition-notes: primary human lung fibroblasts
Activity calls are given as the source filed them. How the source made its calls: active means hit-call score of the fitted dose curve at least 0.9, where 1 is the maximum; inactive means score below 0.9.
Permitted responses: T (active), F (inactive)

CC(C)CC(=O)CC(C)CC(C)C (stereo unspecified) = F
CN(C)c1ccc(C(c2ccccc2)c2ccc(N(C)C)cc2)cc1 = F
O=C(C(=O)c1ccccc1)c1ccccc1 = F
CC[N+](CC)(CC(=O)Nc1c(C)cccc1C)Cc1ccccc1 = F
CN(C)CCC(c1ccc(Cl)cc1)c1ccccn1 (stereo unspecified) = F
Cc1cccnc1 = F
COC(=O)/C=C\C(=O)OC = F
CCCCCCCCCCC1CO1 (stereo unspecified) = T
Cc1cc(-n2nc3ccc(Cl)cc3n2)c(O)c(C(C)(C)C)c1 = F
Sc1nc2ccccc2s1 = F

Now look at this entry.
Assay outcome for CCCCCCCCCC/C=C/C1CC(=O)OC1=O (stereo unspecified) : what was it? F

###

# measured-on: Cellular tumor antigen p53 (Homo sapiens) (UniProt P04637)
# Sequence (P04637 whole entry, looked up): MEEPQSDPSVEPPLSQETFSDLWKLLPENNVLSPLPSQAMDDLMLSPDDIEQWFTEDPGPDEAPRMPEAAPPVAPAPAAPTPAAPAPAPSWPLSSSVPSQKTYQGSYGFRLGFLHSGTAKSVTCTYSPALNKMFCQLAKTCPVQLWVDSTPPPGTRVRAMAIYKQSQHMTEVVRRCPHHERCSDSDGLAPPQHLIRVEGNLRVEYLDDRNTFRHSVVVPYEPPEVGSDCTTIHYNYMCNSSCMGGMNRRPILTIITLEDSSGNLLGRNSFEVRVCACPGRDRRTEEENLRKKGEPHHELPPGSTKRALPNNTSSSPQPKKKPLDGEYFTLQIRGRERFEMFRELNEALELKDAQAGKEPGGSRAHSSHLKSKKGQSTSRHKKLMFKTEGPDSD
# experiment-summary: TOX21_p53_BLA_p2_ratio: Tox21 HCT-116 p53 Agonism Beta-lactamase Assay, Ratio, Phase 2 (AID 2283592)
Records with an inconclusive call do not appear. Active and inactive are the calls of the source. Rule for the calls: active = hit-call score of the fitted dose curve at least 0.9, where 1 is the maximum; inconclusive = response in the unintended direction; inactive = score below 0.9.
Permitted responses: active, inactive

Here's what some known entries look like.
OCCN1CCN(CC/C=C2/c3ccccc3Sc3ccc(C(F)(F)F)cc32)CC1 = inactive
CC(CO)(CO)C(=O)O = inactive
Cc1ccc(NC(=O)c2ccc(CN3CCN(C)CC3)cc2)cc1Nc1nccc(-c2cccnc2)n1 = inactive

Returns: the outcome recorded for "C#C[C@]1(OC(C)=O)CC[C@H]2[C@@H]3CCC4=C[C@@H](OC(C)=O)CC[C@@H]4[C@H]3CC[C@@]21C" in this assay. inactive

What classification did "CCOC(=O)[C@H](CCc1ccccc1)N[C@H]1CS[C@H](c2cccs2)CN(CC(=O)O)C1=O" end up with in this test? inactive

How was "O=C1Nc2ccc(Cl)cc2[C@@](C#CC2CC2)(C(F)(F)F)O1" classified in this test? inactive
